This collection of values is drawn from paper PMC6009955.

- Test system: human breast adenocarcinoma (MCF7)
- protocol.summary: In vitro cytotoxic activity, MTT method, MCF7
- Format: cell-based
- recorded.conditions: MCF-7, MTT, 48 h incubation, means of three experiments
readout.label: pIC50
Kindly note that pIC50 refers to -log10 of the concentration in mol/L and answer with the value alone.

Consider the reported pIC50 for these molecules:
Give a short answer stating reported pIC50 for CCOC(=O)Cc1nc2c3sc4nc(C)c(Br)c(C)c4c3ncn2n1 .
6.39

Identify pIC50 associated with the molecule COc1cc(C2NC(=O)c3sc4nc(C)c(Br)c(C)c4c3N2)ccc1O (stereo not shown)
6.34

Give me measured pIC50, please, for this molecule: Cc1nc2sc3c(c2c(C)c1Br)NC(c1ccc(Cl)cc1)NC3=O (stereo not shown)
6.41

***
Provide pIC50 value for the following molecule: Cc1nc2sc3c(c2c(C)c1Br)NC(c1ccsc1)NC3=O (stereo not shown)
6.51
